Source: paper PMC12040169

Assay: in vitro
Conditions: human, hela cells, % viability
ASSAY_READOUT: viability at 28.5 h, 10 µM (%)

MOLECULE: CCCCN(C(=O)C(F)(F)c1ccccc1)c1c(N)n(CCC)c(=O)[nH]c1=O
QUANTITATIVE_RESULT: 91.4

MOLECULE: CCOC(=O)N1CCC(NC(=O)N2CCN(CCc3ccccc3)CC2)CC1
QUANTITATIVE_RESULT: 89.8

MOLECULE: O=C1CSC(c2ccc(Br)cc2)N1O (stereo not shown)
QUANTITATIVE_RESULT: 89

MOLECULE: CC(C)c1ccccc1OCC(=O)OCCN1C(=O)c2ccccc2C1=O
QUANTITATIVE_RESULT: 92.2

MOLECULE: C[C@H]1[C@@H]2[C@@H](O)C([C@H](C)C(=O)NC3CC3)CC[C@@]2(C)CC[C@@H]1NC(=O)c1cncnc1 (stereo partly shown)
QUANTITATIVE_RESULT: 91.5

MOLECULE: CN1CCC(N2CCN(C(=O)c3ccc(-c4cccc(C(F)(F)F)c4)o3)CC2)CC1
QUANTITATIVE_RESULT: 91.2

MOLECULE: Cc1cccc(NCC(=O)N/N=C/c2cc3ccccc3nc2Cl)c1
QUANTITATIVE_RESULT: 90
